Hello, the source for this data is the supplement of paper PMC8882468, in case you need it.

Would you kindly list CTG-3D luminescence at 96 h for each of these molecules?
- System: HCI-019 (organoid from a triple-negative breast cancer xenograft)
- procedureText: CTG-3D luminescence at 96 h relative to day-0 seeding control (ratio to day 0); higher = more growth / less cytotoxicity; PDxO 3D drug screen, 96 h, CTG-3D normalised to day-0 seeding control.
- testContext: 10 µM; days in culture: 110
Form: value (number only, do not type unit).

Q: Test system HCI-019; read-out CTG-3D luminescence at 96 h; what value for Nc1ccn([C@@H]2O[C@H](CO)[C@@H](O)C2(F)F)c(=O)n1 ?
A: 0.237

Q: State its CTG-3D luminescence at 96 h on HCI-019: C=CC(=O)N1CCC[C@@H](n2nc(-c3ccc(Oc4ccccc4)cc3)c3c(N)ncnc32)C1
A: 1.26

Q: What measured CTG-3D luminescence at 96 h is associated with CNC(=O)c1cccc(-c2ccc3c(N4CCOC[C@@H]4C)nc(N4CCOC[C@@H]4C)nc3n2)c1 on HCI-019?
A: 0.882

Q: Can you look up CTG-3D luminescence at 96 h on HCI-019 for Cc1cc(Nc2ncnc3ccc(NC4=NC(C)(C)CO4)cc23)ccc1Oc1ccn2ncnc2c1 ?
A: 2.33

Q: Give the reported CTG-3D luminescence at 96 h for CC(=O)O[C@H]1C(=O)[C@@]2(C)[C@H]([C@H](OC(=O)c3ccccc3)[C@]3(O)C[C@H](OC(=O)[C@H](O)[C@@H](NC(=O)c4ccccc4)c4ccccc4)C(C)=C1C3(C)C)[C@]1(OC(C)=O)CO[C@@H]1C[C@@H]2O (system: HCI-019).
A: 0.827

###

- Test system: HCI-017.E2 (organoid from an ER-positive breast cancer xenograft)
- procedureText: CTG-3D luminescence at 96 h relative to day-0 seeding control (ratio to day 0); higher = more growth / less cytotoxicity; PDxO 3D drug screen, 96 h, CTG-3D normalised to day-0 seeding control.
- testContext: 12.5 pM
experimentalReadout: CTG-3D luminescence at 96 h
Number only, no unit.

Q: Recorded CTG-3D luminescence at 96 h for CCc1c2c(nc3ccc(O)cc13)-c1cc3c(c(=O)n1C2)COC(=O)[C@]3(O)CC [SN-38] , please?
A: 1.58

Q: Entry COc1cccc2c1C(=O)c1c(O)c3c(c(O)c1C2=O)C[C@@](O)(C(=O)CO)C[C@@H]3O[C@H]1C[C@H](N)[C@H](O)[C@H](C)O1 [doxorubicin] : reported CTG-3D luminescence at 96 h = ?
A: 1.87

Q: Please report the recorded CTG-3D luminescence at 96 h for O=C(O)C1(C(=O)O)CCC1.[NH2-].[NH2-].[Pt+2] [carboplatin] .
A: 1.88

Q: Return reported CTG-3D luminescence at 96 h; argument: C[C@]12CC[C@@H]3c4ccc(O)cc4C[C@@H](CCCCCCCCC[S+]([O-])CCCC(F)(F)C(F)(F)F)[C@H]3[C@@H]1CC[C@@H]2O (stereo partly specified) [fulvestrant]
A: 1.94

Q: Value lookup for CTG-3D luminescence at 96 h; key = C=CC(=O)N1CCC[C@@H](n2nc(-c3ccc(Oc4ccccc4)cc3)c3c(N)ncnc32)C1 [ibrutinib]
A: 1.84

Q: Could you tell me which CTG-3D luminescence at 96 h is on file for C[C@@H]1COCCN1c1cc(C2([S@](C)(=N)=O)CC2)nc(-c2cc[nH]c3nccc2-3)n1 [ceralasertib] ?
A: 1.72

Q: For the compound shown here, NC(=O)c1cccc2cn(-c3ccc([C@@H]4CCCNC4)cc3)nc12 [niraparib] , give the reported CTG-3D luminescence at 96 h.
A: 1.82

Q: Would you kindly share the measured CTG-3D luminescence at 96 h for Cc1cc(Nc2ncc(Cl)c(Nc3ccccc3S(=O)(=O)C(C)C)n2)c(OC(C)C)cc1C1CCNCC1 [ceritinib] ?
A: 1.94

Q: What value of CTG-3D luminescence at 96 h has been reported for the following compound? CS(=O)(=O)c1ccc(C(=O)Nc2ccc(Cl)c(-c3ccccn3)c2)c(Cl)c1 [vismodegib]
A: 1.53

Q: Could you share which CTG-3D luminescence at 96 h value was measured for CN(Cc1cnc2nc(N)nc(N)c2n1)c1ccc(C(=O)N[C@@H](CCC(=O)O)C(=O)O)cc1 [methotrexate] ?
A: 2.07

Q: What value of CTG-3D luminescence at 96 h has been recorded for this entry: Nc1ccn([C@@H]2O[C@H](CO)[C@@H](O)C2(F)F)c(=O)n1 [gemcitabine]
A: 2.08

Q: State the recorded CTG-3D luminescence at 96 h for this entry: O=C(/C=C/c1cccnc1)NCCCCC1CCN(C(=O)c2ccccc2)CC1 [FK866]
A: 1.61

Q: Return reported CTG-3D luminescence at 96 h; argument: Cc1cc(Nc2ncnc3ccc(NC4=NC(C)(C)CO4)cc23)ccc1Oc1ccn2ncnc2c1 [tucatinib]
A: 1.74

Q: Item CC(C)(C(=O)NCC(F)(F)C(F)(F)F)C(=O)N[C@@H]1C(=O)Nc2ccccc2-c2ccccc21 has what recorded CTG-3D luminescence at 96 h?
A: 1.84

Q: What value of CTG-3D luminescence at 96 h has been recorded for this entry: CNC(=O)c1cccc(-c2ccc3c(N4CCOC[C@@H]4C)nc(N4CCOC[C@@H]4C)nc3n2)c1 [vistusertib]
A: 1.6

Q: What CTG-3D luminescence at 96 h value was documented for this compound, Cc1nc(-c2cn3c(n2)-c2ccc(-c4cnn(C(C)(C)C(N)=O)c4)cc2OCC3)n(C(C)C)n1 [taselisib] ?
A: 1.88

###

Kindly state CTG-3D luminescence at 96 h for each of the entries shown.
- Test system: HCI-001 (organoid from a triple-negative breast cancer xenograft)
- procedureText: CTG-3D luminescence at 96 h relative to day-0 seeding control (ratio to day 0); higher = more growth / less cytotoxicity; PDxO 3D drug screen, 96 h, CTG-3D normalised to day-0 seeding control.
- testContext: 100 µM; days in culture: 346
Reply: number alone, nothing else.

Q: CTG-3D luminescence at 96 h lookup needed for O=C(O)C1(C(=O)O)CCC1.[NH2-].[NH2-].[Pt+2] , thanks.
A: 1.01

Q: Which CTG-3D luminescence at 96 h is reported for this compound? CCN(c1cc(C#CCN2CCOCC2)cc(C(=O)NCc2c(C)cc(C)[nH]c2=O)c1C)[C@H]1CC[C@H](N(C)CCOC)CC1
A: 1

Q: # input compound: COc1cccc2c1C(=O)c1c(O)c3c(c(O)c1C2=O)C[C@@](O)(C(=O)CO)C[C@@H]3O[C@H]1C[C@H](N)[C@H](O)[C@H](C)O1 ; wanted: its CTG-3D luminescence at 96 h
A: 0.182

Q: So what does the record say about CTG-3D luminescence at 96 h for CC(C)(C(=O)NCC(F)(F)C(F)(F)F)C(=O)N[C@@H]1C(=O)Nc2ccccc2-c2ccccc21 ?
A: 1.57

###

- System: HCI-001
- procedureText: CTG-3D luminescence at 96 h relative to day-0 seeding control (ratio to day 0); higher = more growth / less cytotoxicity; PDxO 3D drug screen (set 2), 96 h, CTG-3D normalised to day-0 seeding control.
- testContext: 12.5 pM; days in culture: 365
Kindly state CTG-3D luminescence at 96 h for each of the entries shown.
The answer should be written as a number, with no unit following it.

Q: Hi! What's the reported CTG-3D luminescence at 96 h for CS(=O)(=O)CCNCc1ccc(-c2ccc3ncnc(Nc4ccc(OCc5cccc(F)c5)c(Cl)c4)c3c2)o1 [lapatinib] on HCI-001?
A: 2.34

Q: Form entry - test system: HCI-001; read-out: CTG-3D luminescence at 96 h; compound: CO[C@H]1C[C@@H]2CC[C@@H](C)[C@@](O)(O2)C(=O)C(=O)N2CCCC[C@H]2C(=O)O[C@H]([C@H](C)C[C@@H]2CC[C@@H](OCCO)[C@H](OC)C2)CC(=O)[C@H](C)/C=C(\C)[C@@H](O)[C@@H](OC)C(=O)[C@H](C)C[C@H](C)/C=C/C=C/C=C/1C [everolimus]
A: 1.99

Q: I'm curious: which CTG-3D luminescence at 96 h was measured for CCOc1ccn(-c2ccc(F)cc2)c(=O)c1C(=O)Nc1ccc(Oc2ccnc(N)c2Cl)c(F)c1 [ASLAN002] tested on HCI-001?
A: 2.86

Q: GET /values?readout=CTG-3D luminescence at 96 h&system=HCI-001&item= CC(=O)O[C@@]12CO[C@@H]1C[C@H](O)[C@@]1(C)C(=O)[C@H](O)C3=C(C)[C@@H](OC(=O)[C@H](O)[C@@H](NC(=O)OC(C)(C)C)c4ccccc4)C[C@@](O)([C@@H](OC(=O)c4ccccc4)[C@H]21)C3(C)C [docetaxel]
A: 1.99

Q: Record Cc1c(CN2CCN(C(=O)[C@H](C)O)CC2)sc2c(N3CCOCC3)nc(-c3cnc(N)nc3)nc12 [apitolisib] : what is its CTG-3D luminescence at 96 h with HCI-001?
A: 2.58
